Provide the reported IC50 of each item.
Test system: ID8 cells
assay.text: SRB proliferation assay (48 h) on ID8 cells
Type: cell-based
condition.summary: SRB, nonlinear regression, N/A = could not be calculated/had no effect
Answer format: numeric, µM implied, no suffix.

query: Endpoint output: IC50 of Cc1ccc(C(C)C)cc1.F[P-](F)(F)(F)(F)F.O=C(OC1COC(c2n[n+]3c(o2)-c2cccc[n+]2[Ru-]3[Cl])C(OC(=O)c2ccccc2)C1OC(=O)c1ccccc1)c1ccccc1 (mixture of isomers) [Ru-6] . Value?
result: 6.76

query: Now consider O=C1[O][Pt]2([NH][C@@H]3CCCC[C@H]3[NH]2)[O]C1=O [Oxaliplatin, oxaliplatin, reference compound] .
result: 4.59

query: Now consider N.N.[Cl][Pt][Cl] [Cisplatin, cisplatin, reference compound] .
result: 10.8

query: Now consider Cc1ccc(C(C)C)cc1.F[P-](F)(F)(F)(F)F.O=C(OCC1OC(c2nnc(-c3ccccn3)o2)C(OC(=O)c2ccccc2)C(OC(=O)c2ccccc2)C1OC(=O)c1ccccc1)c1ccccc1.[Cl][Ru+] (mixture of isomers) [Ru-8] .
result: 7.94

query: Now consider Cc1ccc(C(C)C)cc1.F[P-](F)(F)(F)(F)F.O=C(OCC1OC(c2n[n+]3c(o2)-c2cccc[n+]2[Ru-]3[Cl])C(OC(=O)c2ccccc2)C(OC(=O)c2ccccc2)C1OC(=O)c1ccccc1)c1ccccc1 (mixture of isomers) [Ru-4] .
result: 5.66

====

System: human primary skin fibroblasts
assay.text: SRB proliferation assay (48 h) on primary fibroblasts
Format: cell-based
condition.summary: primary human fibroblasts
recorded.metric: effect in long-term SRB assay (in words)

>  <compound>
O=C(O[C@@H]1[C@@H](OC(=O)c2ccccc2)[C@H](c2nnc(-c3ccccn3)o2)OC[C@H]1OC(=O)c1ccccc1)c1ccccc1

>  <result>
no effect

$$$$
>  <compound>
N.N.O=C([O-])C1(C(=O)[O-])CCC1.[Pt+2] [Carboplatin, carboplatin, reference compound]

>  <result>
no effect

$$$$
>  <compound>
O=C(OC[C@H]1O[C@@H](n2cc(-c3ccccn3)nn2)[C@H](OC(=O)c2ccccc2)[C@@H](OC(=O)c2ccccc2)[C@@H]1OC(=O)c1ccccc1)c1ccccc1

>  <result>
no effect

$$$$

====

Tested on: MCF7 cells (breast cancer)
assay.text: SRB proliferation assay (48 h) on MCF7 cells
Assay type: cell-based
condition.summary: nonlinear regression
recorded.metric: MCF7 Hill Slope
Please reply with the number alone, leaving off any unit.

query: Return MCF7 Hill Slope measured with MCF7 cells (breast cancer) given this compound: Cc1ccc(C(C)C)cc1.F[P-](F)(F)(F)(F)F.O=C(OCC1OC(c2n[n+]3c(o2)-c2cccc[n+]2[Ru-]3[Cl])C(OC(=O)c2ccccc2)C(OC(=O)c2ccccc2)C1OC(=O)c1ccccc1)c1ccccc1 (mixture of isomers)
result: 2.01

query: Now consider Cc1ccc(C(C)C)cc1.F[P-](F)(F)(F)(F)F.O=C(OCC1OC(n2cc(-c3ccccn3)nn2)C(OC(=O)c2ccccc2)C(OC(=O)c2ccccc2)C1OC(=O)c1ccccc1)c1ccccc1.[Cl][Ru+] (mixture of isomers) .
result: 1.85

query: Now consider Cc1ccc(C(C)C)cc1.F[P-](F)(F)(F)(F)F.O=C(OC1COC(c2n[n+]3c(o2)-c2cccc[n+]2[Ru-]3[Cl])C(OC(=O)c2ccccc2)C1OC(=O)c1ccccc1)c1ccccc1 (mixture of isomers) .
result: 2.13

query: Now consider Cc1ccc(C(C)C)cc1.F[P-](F)(F)(F)(F)F.O=C(OCC1OC(c2nnc(-c3ccccn3)o2)C(OC(=O)c2ccccc2)C(OC(=O)c2ccccc2)C1OC(=O)c1ccccc1)c1ccccc1.[Cl][Ru+] (mixture of isomers) .
result: 2.06
